These data points were gathered from patent US20260193236A1.

Entries and their activation at 10 µM
Test system: IRE1-XBP1s (XBP1-RLuc splicing reporter in HEK293 T-REx cells)
ASSAY METHOD TEXT: IRE1-XBP1s activation assay (XBP1-RLuc splicing reporter, HEK293 T-REx cells, luminescence relative to thapsigargin)
Assay type: cell-based
ASSAY CONDITIONS: 18 h, compound 10 μM, HEK293 T-REx XBP1-RLuc reporter cells, relative to thapsigargin (Tg) 500 nM, read-out: Activity (IRE1-XBP1s activation, luminescence as % signal relative to thapsigargin, % Tg)

Reference set, count: 4
SAMPLE SMILES | READOUT | EXPERIMENTAL RESULT
Cc1ccc(OC[C@H](C)N(C)C(=O)Cn2cc(NC(=O)CCOc3c(F)cccc3F)cn2)cc1 | activation at 10 µM | > 50%
COc1ccc(OCCN(C)C(=O)Cn2cc(NC(=O)CCOc3ccnc(F)c3)cn2)cc1 | activation at 10 µM | < 30%
C=Cc1cncc(F)c1NCCC(=O)Nc1cnn(CC(=O)N(C)CCOc2ccc(C)cc2)c1 | activation at 10 µM | > 50%
COc1cccc(OCCC(=O)Nc2cnn(CC(=O)N(C)CCOc3ccc(C)cc3)c2)c1 | activation at 10 µM | > 50%

Task: Can you look up the measured activation at 10 µM of "Cc1ccc(OCCN(C)C(=O)Cn2cc(NC(=O)CCOc3cccc(N)n3)cn2)cc1" for me?
Output: > 50%

Task: Can you look up the measured activation at 10 µM of "COc1cc(OCCN(C)C(=O)Cn2cc(NC(=O)CCNc3ncccn3)cn2)ccc1C" for me?
Output: < 30%

Task: Can you look up the measured activation at 10 µM of "Cc1ccc(OCCN(C)C(=O)Cn2cc(NC(=O)CCOc3cccc(N(C)C)c3)cn2)cc1" for me?
Output: > 50%

Task: Can you look up the measured activation at 10 µM of "Cc1ccc(OC[C@@H](C)N(C)C(=O)Cn2cc(NC(=O)CCOc3c(F)cccc3F)cn2)cc1" for me?
Output: > 50%

----------
System: IRE1-XBP1s (XBP1-RLuc splicing reporter in HEK293 T-REx cells)
ASSAY METHOD TEXT: IRE1-XBP1s activation assay (XBP1-RLuc splicing reporter, HEK293 T-REx cells, luminescence relative to thapsigargin)
Type: cell-based
ASSAY CONDITIONS: 18 h, compound 10 μM, HEK293 T-REx XBP1-RLuc reporter cells, relative to thapsigargin (Tg) 500 nM, read-out: Activity (IRE1-XBP1s activation, luminescence as % signal relative to thapsigargin, % Tg)
READOUT: activation at 10 µM

Reference set, count: 8
MOLECULE | activation at 10 µM
Cc1ccc(OCCN(C)C(=O)Cn2cc(NC(=O)COc3cc4ccccn4n3)cn2)cc1 [Compound 289] | > 50%
Cc1ccc(OCCN(C)C(=O)Cn2cc(NC(=O)CCNc3cnc(F)cc3C)cn2)cc1 [Compound 179] | > 50%
Cc1nc(F)ccc1NCCC(=O)Nc1cnn(CC(=O)N(C)CCOc2ccn(C)n2)c1 [Compound 242] | < 30%
Cc1ccc(OCCN(C)C(=O)Cn2cc(NC(=O)[C@@H](C)CNc3ccnc(F)n3)cn2)cc1 [Compound 224] | > 50%
Cc1ccc(OCCN(C)C(=O)Cn2cc(NC(=O)CCNc3ccnc(F)c3Cl)cn2)cc1 [Compound 190] | < 30%
COc1cc(NCCC(=O)Nc2cnn(CC(=O)N(C)CCOc3ccc(C)cc3)c2)ccn1 [Compound 120] | > 50%
CCc1cc(F)ccc1OCCC(=O)Nc1cnn(CC(=O)N(C)CCOc2ccc(C)cc2)c1 [Compound 59] | < 30%
Cc1ccc(OCCN(C)C(=O)Cn2cc(NC(=O)CCOc3ccccc3Cl)cn2)cc1 [Compound 32] | > 50%

Task: Can you look up the measured activation at 10 µM of Cc1ccc(OCCN(C)C(=O)Cn2cc(NC(=O)CCNc3cc(C(F)(F)F)ccn3)cn2)cc1 [Compound 133] for me?
Output: > 50%

Task: Can you look up the measured activation at 10 µM of Cc1ccc(OCCN(C)C(=O)Cn2cc(NC(=O)CCNc3ccccc3)cn2)cc1 [Compound 27] for me?
Output: > 50%

Task: Can you look up the measured activation at 10 µM of Cc1ccc(OCCN(C)C(=O)Cn2cc(NC(=O)CCNc3ccnc(F)n3)cn2)cc1 [Compound 136] for me?
Output: 30 to 50%

Task: Can you look up the measured activation at 10 µM of Cc1ccc2sc(OCCN(C)C(=O)Cn3cc(NC(=O)CCNc4ccc(F)nc4C)cn3)nc2c1 [Compound 246] for me?
Output: < 30%

Task: Can you look up the measured activation at 10 µM of CNc1nccc(OCCC(=O)Nc2cnn(CC(=O)N(C)CCOc3ccc(C)cc3)c2)n1 [Compound 106] for me?
Output: > 50%

Task: Can you look up the measured activation at 10 µM of Cc1ccc(OCCN(C)C(=O)Cn2cc(NC(=O)CCOc3ccncc3N)cn2)cc1 [Compound 112] for me?
Output: 30 to 50%

Task: Can you look up the measured activation at 10 µM of Cc1ccc(OCCN(C)C(=O)Cn2cc(NC(=O)[C@@H](C)CNc3nccc(F)n3)cn2)cc1 [Compound 223] for me?
Output: > 50%
